Give measured IC50 for each item. Keep answers brief.
system: 5637; assay: WST-1 cytotoxicity assay; format: cell-based; settings: 5637, 48 hour treatment
Numbers only, in µM.

{"columns": ["COMPOUND", "ASSAY TARGET", "ASSAY METRIC", "RECORDED VALUE"],
 "data": [
  ["Nc1ncn([C@@H]2O[C@H](CO)[C@@H](O)[C@H]2O)c(=O)n1 [5-AzaC, 5-azacytidine, reference compound]", 5637, "IC50", 6.72]
]}

Prompt: Return reported IC50; argument: CCCCCCCC/C=C/CCCCCCCC(=O)OC[C@H]1O[C@@H](n2cnc(N)nc2=O)[C@H](O)[C@@H]1O [CP, 5-azacytidine 5′-elaidate]
Response: 5.95
